target: 40 binding sites (other than the D1 site); test: Screen at about 40 receptor binding sites; conditions: inactive at all except D2 and alpha2
Where a name gives a salt, the structure may show the parent alone.
Readout name: IC50

// query IC50 value for entry Oc1cc2c(cc1O)[C@H]1c3ccccc3CN[C@@H]1CC2 (racemic) [dihydrexidine, hydrochloride] > 10 µM

* * *

target: D2 receptors (Rattus norvegicus); construct: other: rat brain striatal homogenates, 3H-spiperone; conditions: rat brain striatal homogenates, 3H-spiperone; read-out: D2 Affinity (K0.5) ± SEM
Sequence (P61169 whole entry): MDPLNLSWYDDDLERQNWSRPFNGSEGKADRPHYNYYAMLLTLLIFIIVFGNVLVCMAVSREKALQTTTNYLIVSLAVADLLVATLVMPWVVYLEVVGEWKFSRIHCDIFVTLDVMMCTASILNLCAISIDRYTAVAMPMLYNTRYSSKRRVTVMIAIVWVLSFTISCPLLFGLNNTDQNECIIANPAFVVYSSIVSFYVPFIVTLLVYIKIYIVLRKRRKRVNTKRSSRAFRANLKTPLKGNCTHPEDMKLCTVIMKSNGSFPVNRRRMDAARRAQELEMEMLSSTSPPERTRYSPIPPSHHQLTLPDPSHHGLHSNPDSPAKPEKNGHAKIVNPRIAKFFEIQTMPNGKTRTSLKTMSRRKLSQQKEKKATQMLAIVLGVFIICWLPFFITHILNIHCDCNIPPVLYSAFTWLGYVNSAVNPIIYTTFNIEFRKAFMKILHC
Readout name: pKi
To interpret pKi, take it as minus log10 of a concentration measured in moles per litre.

Could you share which pKi value was measured for Cl.Oc1cc2c(cc1O)[C@@H]1c3cc(Cc4ccccc4)ccc3CN[C@H]1CC2 (relative stereo) [Compound 6e, hydrochloride] ? 6.73
